src = patent US20110028509A1

Target: CXCR3 (Homo sapiens, UniProt P49682)
Sequence (P49682 whole entry): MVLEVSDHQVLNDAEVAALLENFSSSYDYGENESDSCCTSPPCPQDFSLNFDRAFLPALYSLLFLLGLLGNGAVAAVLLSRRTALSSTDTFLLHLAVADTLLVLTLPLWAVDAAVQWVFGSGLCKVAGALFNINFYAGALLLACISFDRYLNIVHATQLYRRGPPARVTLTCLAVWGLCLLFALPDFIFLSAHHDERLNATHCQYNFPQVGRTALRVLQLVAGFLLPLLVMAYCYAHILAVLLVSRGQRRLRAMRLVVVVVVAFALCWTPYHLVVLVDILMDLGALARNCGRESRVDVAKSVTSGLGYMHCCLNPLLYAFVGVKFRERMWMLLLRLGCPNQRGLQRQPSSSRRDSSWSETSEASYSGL
Experiment: Chemotaxis assay ITAC (CXCL11), L1.2-CXCR3 cells
Format: cell-based
Design: expressed in transfected cells
Details: 1 nM CXCL11 (I-TAC), 4 hours
pIC50: −log10 of the molar value.
readout: pIC50

1) O=S(=O)(c1ccc(OC(F)(F)F)cc1)N(Cc1ccc(-c2nnn[nH]2)cc1)Cc1ccccn1    5.35

1. O=S(=O)(c1ccc(Cl)cc1)N(Cc1ccc(-c2nnn[nH]2)cc1)Cc1cccnc1
2. O=S(=O)(c1ccc(Cl)cc1)N(Cc1ccc(-c2nnn[nH]2)cc1)Cc1nccc2ccccc12
3. CCOc1ccc(S(=O)(=O)N(Cc2ccc(C(=O)OC)c(OC)c2)Cc2ccccn2)cc1
Returns the items ordered by pIC50, from maximum to minimum. State the ranking by listing the labels in the requested order.
2, 1, 3
